- Tested on: Escherichia coli TOP10;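 further: peptides expressed intracellularly from a pBAD plasmid library in pooled LB shake-flask culture, induced with 0.3% L-arabinose, DNA abundance read by NGS, three biological replicates, DESeq2 with apeglm shrinkage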
- MEASUREMENT DESCRIPTION: shrunken log2 fold change of peptide-encoding DNA abundance (4.5 h post-induction vs induction); higher = less antimicrobial activity (less host growth inhibition)
- TEST PARAMETERS: time post-induction: 4.5 h; library: site-saturation at positions 5, 18, 19, 20
shrunken log2 fold change for assorted sequences
Field format: numeric only.

Some solved cases for reference:
RRIRHRPPRLPRPRPRPYQYPRP : -0.00963
RRIRERPPRLPRPRPRPIVYPRP : 0.0176
RRIRARPPRLPRPRPRPKPNPRP : 0.736
RRIRQRPPRLPRPRPRPWDAPRP : -0.0479
RRIRGRPPRLPRPRPRPFYYPRP : 0.07
RRIRIRPPRLPRPRPRPKNKPRP : -0.68
RRIRFRPPRLPRPRPRPAVQPRP : -0.0142
RRIRSRPPRLPRPRPRPILWPRP : -0.0848

Recall and state the measured shrunken log2 fold change for "RRIRPRPPRLPRPRPRPHNIPRP" .
-0.546

Tell me shrunken log2 fold change reported for "RRIRKRPPRLPRPRPRPLLPPRP"
0.227

Reference source for all entries: the supplement of paper PMC9112550
